assay: E. coli DRC41 culture turbidity changes, primary screen, E. coli filamentation inducer project, strain DRC41, OD650, 48 h (AID 1152);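 also: E. coli MC1000 strain DRC41 lacking acrAB efflux pump and sulA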; conditions: E. coli DRC41 (acrAB sulA), higher = more signal, called active from +8 up or from −8 down
Record form. Attribute: z-score. Fill in for each entry.
Please state the value as a number alone, without comment.

INPUT: Reported z-score, molecule C[C@]12C(=O)N(CCO)[C@@H]3C(=O)N(c4ccc(Cl)cc4)CC=CC31O[C@@H]1/C=C\CCCOC(=O)C12 (some centres undefined) : ____
OUTPUT: -0.295

INPUT: Reported z-score, molecule COc1ccc([Si](C)(C)[C@H]2[C@H](CC(=O)N(CCO)Cc3ccccc3)O[C@@]3(C(=O)N(Cc4cccc(N5CCCCC5=O)c4)c4ccccc43)[C@@H]2C)cc1 : ____
OUTPUT: 1.52

INPUT: Reported z-score, molecule COC(=O)C[C@H]1O[C@]2(C(=O)N(C)c3ccccc32)[C@@H](C)[C@@H]1[Si](C)(C)c1ccccc1 : ____
OUTPUT: -0.297

INPUT: Reported z-score, molecule CCCN1C(=O)[C@@]2(c3ccc([N+](=O)[O-])cc3)CC(=O)N(C3CCCCC3)[C@@H]2c2ccc(CO)cc21 : ____
OUTPUT: -1.45

----------
Record form. Attribute: composite z-score. Fill in for each entry.
target: Follistatin-related protein 3 (Homo sapiens); assay: FSTL3 binders on small-molecule microarrays, primary screen, biochemical, small-molecule microarray, 635 nm fluorescence (AID 1105); conditions: FSTL3 binding, higher = more signal;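 also: score merges emission near 667 nm and signal to noise per printed spot across three slides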
Please state the value as a number alone, without comment.

INPUT: Reported composite z-score, compound CC1CC/C=C\[C@H]2OC34C=CCN(CCN5CCOCC5)C(=O)[C@H]3N(C(CO)C(C)C)C(=O)[C@@H]4C2C(=O)O1 (some centres not stated) : ____
OUTPUT: -0.239

INPUT: Reported composite z-score, compound C=C(C(=O)CC[C@@H](OC(=O)c1ccccc1-c1ccccc1C(=O)O)c1ccc(CO)o1)C(C)C : ____
OUTPUT: 0.648

INPUT: Reported composite z-score, compound CCOC(=O)C[C@H]1[C@H](OC(=O)c2cc3ccccc3oc2=O)[C@@H](NC(=O)Cc2ccc(OC)cc2)c2cc(OCCCO)ccc2N1C(=O)Cc1ccc(OC)cc1 : ____
OUTPUT: 0.789

INPUT: Reported composite z-score, compound COC(=O)[C@@]1(Cc2ccc(OC)cc2)[C@H]2c3cc(C(=O)N(C)C)n(Cc4c(CO)[nH]cc(C)c4=O)c3C[C@H]2CN1C(=O)c1ccccc1 : ____
OUTPUT: 0.128

INPUT: Reported composite z-score, compound [N-]=[N+]=Nc1ccccc1C[C@]1(C(=O)N2CCCCC2)N=C(c2ccc(OCCCO)cc2)O[C@H]1c1ccccc1 : ____
OUTPUT: 0.616

INPUT: Reported composite z-score, compound C#CCN(C(=O)OC(C)(C)C)[C@H](CO)c1ccccc1 : ____
OUTPUT: -0.0195

INPUT: Reported composite z-score, compound CC(C)(C)OC(=O)CC[C@@]1(C(=O)N2CCOCC2)N=C(c2ccc(OCCCO)cc2)O[C@@H]1c1ccccc1CN=[N+]=[N-] : ____
OUTPUT: 0.488

----------
target: Dickkopf-related protein 1 (Homo sapiens); assay: DKK1 binders on small-molecule microarrays, primary screen, biochemical, small-molecule microarray, 635 nm fluorescence scan (AID 1106); settings: DKK1 binding, higher = more signal;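 also: score merges emission near 667 nm with signal to noise over three replicate slides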
Give condition met when the value for composite z-score is at least 0.2. Give condition not met when it is less.

INPUT: Quick check, composite z-score >= 0.2? COCCCNC(=O)[C@]1(Cc2ccccc2CN=[N+]=[N-])N=C(c2ccc(OCCCO)cc2)O[C@@H]1c1ccccc1N=[N+]=[N-]
OUTPUT: condition not met

INPUT: Quick check, composite z-score >= 0.2? CC[C@@H](O[Si](C#C[Si](C(C)C)(C(C)C)C(C)C)(C(C)C)C(C)C)c1cn(Cc2cccc(Cl)c2)nn1
OUTPUT: condition met

INPUT: Quick check, composite z-score >= 0.2? C=CCC(OC(C)=O)[C@@H]1[C@@H](N(Cc2cccc3ccccc23)C(=O)c2ccc(C)cc2)c2cc(OCCCO)ccc2N1C(=O)Cc1ccc2ccccc2c1 (stereo not given in full)
OUTPUT: condition met

INPUT: Quick check, composite z-score >= 0.2? COc1ccc(C(O)C2C=CC3C(=O)N(c4ccccc4)C(=O)C3N2Nc2ccccc2F)c2ccccc12 (stereo not given)
OUTPUT: condition not met

INPUT: Quick check, composite z-score >= 0.2? C=C(COC)C(=O)CC[C@@H](OC(=O)c1ccccc1-c1ccccc1C(=O)O)c1ccccc1OCCO
OUTPUT: condition met

INPUT: Quick check, composite z-score >= 0.2? C=C(/C=C\CNS(=O)(=O)c1ccc(C)cc1)[C@H](O)[C@H]1CCCN1S(=O)(=O)c1ccccc1[N+](=O)[O-]
OUTPUT: condition met

INPUT: Quick check, composite z-score >= 0.2? C=C(CCCC)/C(=C/C[C@@H](OC(C)=O)c1cccc(OCCO)c1)c1cc(C(=O)OC)ccc1OC
OUTPUT: condition not met

INPUT: Quick check, composite z-score >= 0.2? CCCCCN1CC=CC23O[C@@H]4/C=C\CCCOC(=O)C4[C@H]2C(=O)N(CCO)[C@@H]3C1=O (stereo not given in full)
OUTPUT: condition not met

INPUT: Quick check, composite z-score >= 0.2? CCCCN1CC=CC23O[C@@H]4C=CCCOC(=O)C4[C@H]2C(=O)N(CCO)[C@@H]3C1=O (stereo not given in full)
OUTPUT: condition not met

INPUT: Quick check, composite z-score >= 0.2? CC(C)C[C@@H]1NC(=O)[C@H]2C[C@@H](C(=O)O)[C@@H](c3cccc(OCCO)c3)N2C1=O
OUTPUT: condition met

INPUT: Quick check, composite z-score >= 0.2? C=CCN1C(=O)[C@]2(O[C@H](CCO)[C@@H]([Si](C)(C)c3ccc(OC)cc3)[C@@H]2C)c2cc(N3C(=O)c4ccccc4Oc4ccccc43)ccc21
OUTPUT: condition not met

INPUT: Quick check, composite z-score >= 0.2? CN(C)CCCCCCNC(=O)[C@@H]1C[C@@H]2C(=O)N[C@@H](CCCC[N+](C)(C)C)C(=O)N2[C@@H]1c1cccc(OCCO)c1
OUTPUT: condition not met

INPUT: Quick check, composite z-score >= 0.2? CC(C)c1ccc(NN2C(C(O)C3=C[C@H]4C[C@@H](C3)C4(C)C)C=CC3C(=O)N(c4ccccc4)C(=O)C32)cc1 (stereo not given in full)
OUTPUT: condition met

INPUT: Quick check, composite z-score >= 0.2? COC(=O)[C@@]1(Cc2ccc(F)cc2)[C@H]2c3cc(C(=O)N(C)C)n(Cc4cccc5ccccc45)c3C[C@H]2CN1C(=O)c1ccccc1
OUTPUT: condition not met

INPUT: Quick check, composite z-score >= 0.2? CCCCC=C[C@@H](NC(=O)C(C)(C)C)c1ccccc1
OUTPUT: condition not met

Data credit: PubChem BioAssay
